Where do the numbers come from? From the supplement of paper PMC5998384.

system: HeLa Kyoto; experiment: thermal stability score vs G1/S (z-score of summed log2 fold changes over temperatures); higher = more thermally stable than in G1/S; settings: cell cycle stage: mitosis
Measured quantity: thermal stability score
Respond numerically, and do not add a unit to the figure.

Lookup: Request the reported thermal stability score associated with MASERLPNRPACLLVASGAAEGVSAQSFLHCFTMASTAFNLQVATPGGKAMEFVDVTESNARWVQDFRLKAYASPAKLESIDGARYHALLIPSCPGALTDLASSGSLARILQHFHSESKPICAVGHGVAALCCATNEDRSWVFDSYSLTGPSVCELVRAPGFARLPLVVEDFVKDSGACFSASEPDAVHVVLDRHLVTGQNASSTVPAVQNLLFLCGSRK [PDDC1]
Found: -0.729

Lookup: Give the measured thermal stability score of MSKSESPKEPEQLRKLFIGGLSFETTDESLRSHFEQWGTLTDCVVMRDPNTKRSRGFGFVTYATVEEVDAAMNARPHKVDGRVVEPKRAVSREDSQRPGAHLTVKKIFVGGIKEDTEEHHLRDYFEQYGKIEVIEIMTDRGSGKKRGFAFVTFDDHDSVDKIVIQKYHTVNGHNCEVRKALSKQEMASASSSQRGRSGSGNFGGGRGGGFGGNDNFGRGGNFSGRGGFGGSRGGGGYGGSGDGYNGFGNDGGYGGGGPGYSGGSRGYGSGGQGYGNQGSGYGGSGSYDSYNNGGGGGFGGGSGSNFGGGGSYNDFGNYNNQSSNFGPMKGGNFGGRSSGPYGGGGQYFAKPRNQGGYGGSSSSSSYGSGRRF [HNRNPA1] .
Found: 1.18

Lookup: Fill in the blank: the reported thermal stability score of MAACTARRALAVGSRWWSRSLTGARWPRPLCAAAGAGAFSPASTTTTRRHLSSRNRPEGKVLETVGVFEVPKQNGKYETGQLFLHSIFGYRGVVLFPWQARLYDRDVASAAPEKAENPAGHGSKEVKGKTHTYYQVLIDARDCPHISQRSQTEAVTFLANHDDSRALYAIPGLDYVSHEDILPYTSTDQVPIQHELFERFLLYDQTKAPPFVARETLRAWQEKNHPWLELSDVHRETTENIRVTVIPFYMGMREAQNSHVYWWRYCIRLENLDSDVVQLRERHWRIFSLSGTLETVRGRGVVGREPVLSKEQPAFQYSSHVSLQASSGHMWGTFRFERPDGSHFDVRIPPFSLESNKDEKTPPSGLHW [POLDIP2] is ____.
Found: -0.814

###

Please respond with reported solubility in G1/S (log2) for every item in the list.
tested on: HeLa Kyoto; experiment: solubility in G1/S (NP-40 vs SDS abundance) (log2 ratio); higher = more soluble; conditions: cell cycle stage: G1/S
Just the number, please.

Lookup: // fetch HeLa Kyoto solubility in G1/S (log2) for MPGRSSSNSGSTGFISFSGVESALSSLKNFQACINSGMDTASSVALDLVESQTEVSSEYSMDKAMVEFATLDRQLNHYVKAVQSTINHVKEERPEKIPDLKLLVEKKFLALQSKNSDADFQNNEKFVQFKQQLKELKKQCGLQADREADGTEGVDEDIIVTQSQTNFTCPITKEEMKKPVKNKVCGHTYEEDAIVRMIESRQKRKKKAYCPQIGCSHTDIRKSDLIQDEALRRAIENHNKKRHRHSE [NSMCE2]
Found: -0.0327

Lookup: Recorded solubility in G1/S (log2) for MESGDEAAIERHRVHLRSATLRDAVPATLHLLPCEVAVDGPAPVGRFFTPAIRQGPEGLEVSFRGRCLRGEEVAVPPGLVGYVMVTEEKKVSMGKPDPLRDSGTDDQEEEPLERDFDRFIGATANFSRFTLWGLETIPGPDAKVRGALTWPSLAAAIHAQVPED [RNASEH2C] with HeLa Kyoto, please?
Found: 0.236

###

tested on: HeLa Kyoto; assay: thermal stability score vs G1/S (z-score of summed log2 fold changes over temperatures); higher = more thermally stable than in G1/S; conditions: cell cycle stage: mitosis
I'd appreciate it if you could supply thermal stability score values for the items below.

Lookup: Entry under review: MFRRKLTALDYHNPAGFNCKDETEFRNFIVWLEDQKIRHYKIEDRGNLRNIHSSDWPKFFEKYLRDVNCPFKIQDRQEAIDWLLGLAVRLEYGDNAEKYKDLVPDNSKTADNATKNAEPLINLDVNNPDFKAGVMALANLLQIQRHDDYLVMLKAIRILVQERLTQDAVAKANQTKEGLPVALDKHILGFDTGDAVLNEAAQILRLLHIEELRELQTKINEAIVAVQAIIADPKTDHRLGKVGR [C14ORF166] . Reported thermal stability score?
Found: -0.0878

Lookup: Could you tell me which thermal stability score is on file for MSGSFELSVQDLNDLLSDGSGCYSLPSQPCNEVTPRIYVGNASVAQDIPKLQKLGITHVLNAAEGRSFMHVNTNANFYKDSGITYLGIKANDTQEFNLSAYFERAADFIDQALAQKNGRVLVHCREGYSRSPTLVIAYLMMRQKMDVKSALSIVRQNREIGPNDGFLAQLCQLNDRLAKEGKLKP [DUSP3] ?
Found: -0.0543

Lookup: Entry under review: MIRNGRGAAGGAEQPGPGGRRAVRVWCDGCYDMVHYGHSNQLRQARAMGDYLIVGVHTDEEIAKHKGPPVFTQEERYKMVQAIKWVDEVVPAAPYVTTLETLDKYNCDFCVHGNDITLTVDGRDTYEEVKQAGRYRECKRTQGVSTTDLVGRMLLVTKAHHSSQEMSSEYREYADSFGKCPGGRNPWTGVSQFLQTSQKIIQFASGKEPQPGETVIYVAGAFDLFHIGHVDFLEKVHRLAERPYIIAGLHFDQEVNHYKGKNYPIMNLHERTLSVLACRYVSEVVIGAPYAVTAELLSHFKVDLVCHGKTEIIPDRDGSDPYQEPKRRGIFRQIDSGSNLTTDLIVQRIITNRLEYEARNQKKEAKELAFLEAARQQAAQPLGERDGDF [PCYT2] . Reported thermal stability score?
Found: 0.0948

###

test system: HeLa Kyoto; experiment: melting temperature (median over replicates), in situ; higher = more thermally stable; details: cell cycle stage: mitosis
Give melting temperature for every item shown.

Lookup: Short answer please: melting temperature, HeLa Kyoto, entry MEESGYESVLCVKPDVHVYRIPPRATNRGYRAAEWQLDQPSWSGRLRITAKGQMAYIKLEDRTSGELFAQAPVDQFPGTAVESVTDSSRYFVIRIEDGNGRRAFIGIGFGDRGDAFDFNVALQDHFKWVKQQCEFAKQAQNPDQGPKLDLGFKEGQTIKLNIANMKKKEGAAGNPRVRPASTGGLSLLPPPPGGKTSTLIPPPGEQLAVGGSLVQPAVAPSSGGAPVPWPQPNPATADIWGDFTKSTGSTSSQTQPGTGWVQF [NECAP2]
Found: 52 °C

Lookup: // map MPVVRKIFRRRRGDSESEEDEQDSEEVRLKLEETREVQNLRKRPNGVSAVALLVGEKVQEETTLVDDPFQMKTGGMVDMKKLKERGKDKISEEEDLHLGTSFSAETNRRDEDADMMKYIETELKKRKGIVEHEEQKVKPKNAEDCLYELPENIRVSSAKKTEEMLSNQMLSGIPEVDLGIDAKIKNIISTEDAKARLLAEQQNKKKDSETSFVPTNMAVNYVQHNRFYHEELNAPIRRNKEEPKARPLRVGDTEKPEPERSPPNRKRPANEKATDDYHYEKFKKMNRRY [C9ORF78] to recorded melting temperature (system: HeLa Kyoto)
Found: 55.1 °C

Lookup: Please state recorded melting temperature (tested on HeLa Kyoto) of MAALTLRGVRELLKRVDLATVPRRHRYKKKWAATEPKFPAVRLALQNFDMTYSVQFGDLWPSIRVSLLSEQKYGALVNNFAAWDHVSAKLEQLSAKDFVNEAISHWELQSEGGQSAAPSPASWACSPNLRCFTFDRGDISRFPPARPGSLGVMEYYLMDAASLLPVLALGLQPGDIVLDLCAAPGGKTLALLQTGCCRNLAANDLSPSRIARLQKILHSYVPEEIRDGNQVRVTSWDGRKWGELEGDTYDRVLVDVPCTTDRHSLHEEENNIFKRSRKKERQILPVLQVQLLAAGLLATKPGGHVVYSTCSLSHLQNEYVVQGAIELLANQYSIQVQVEDLTHFRRVFMDTFCFFSSCQVGELVIPNLMANFGPMYFCKMRRLT [NSUN4]
Found: 51.9 °C

Lookup: // fetch HeLa Kyoto melting temperature for MEDDAPVIYGLEFQARALTPQTAETDAIRFLVGTQSLKYDNQIHIIDFDDENNIINKNVLLHQAGEIWHISASPADRGVLTTCYNRTSDSKVLTCAAVWRMPKELESGSHESPDDSSSTAQTLELLCHLDNTAHGNMACVVWEPMGDGKKIISLADNHILLWDLQESSSQAVLASSASLEGKGQLKFTSGRWSPHHNCTQVATANDTTLRGWDTRSMSQIYCIENAHGQLVRDLDFNPNKQYYLASCGDDCKVKFWDTRNVTEPVKTLEEHSHWVWNVRYNHSHDQLVLTGSSDSRVILSNMVSISSEPFGHLVDDDDISDQEDHRSEEKSKEPLQDNVIATYEEHEDSVYAVDWSSADPWLFASLSYDGRLVINRVPRALKYHILL [TSSC1]
Found: 52.9 °C

Lookup: What is its melting temperature for HeLa Kyoto? Entry: MADDQGCIEEQGVEDSANEDSVDAKPDRSSFVPSLFSKKKKNVTMRSIKTTRDRVPTYQYNMNFEKLGKCIIINNKNFDKVTGMGVRNGTDKDAEALFKCFRSLGFDVIVYNDCSCAKMQDLLKKASEEDHTNAACFACILLSHGEENVIYGKDGVTPIKDLTAHFRGDRCKTLLEKPKLFFIQACRGTELDDGIQADSGPINDTDANPRYKIPVEADFLFAYSTVPGYYSWRSPGRGSWFVQALCSILEEHGKDLEIMQILTRVNDRVARHFESQSDDPHFHEKKQIPCVVSMLTKELYFSQ [CASP7]
Found: 54.2 °C
